Tested on: U-251
Experiment: NCI tumour cell line growth inhibition, 48 h
Active and inactive are the calls of the source. Rule as the data show it: active = GI50 up to about 1.1 µM and inactive = higher.
Field 'call' accepts 1 (active), 0 (inactive)

What outcome does the record of this test show for "CCN(CCCl)CCCCNc1c2ccccc2nc2ccc(OC)cc12" ?
1

// repeat for "COc1cc2c(cc1OCc1ccccc1)NC(=S)[C@@H]1CCCN1C2=S" and report
0

// repeat for CC1(C)OCC(C2CCC3(C)C4=CCC5C(C)(C)C(O)CCC5(C)C4CCC23C)CC(O)C1O (stereo not given) and report
0

// repeat for "O=C1C(c2ccc([N+](=O)[O-])cc2)=[N+]([O-])c2ccc([N+](=O)[O-])cc21" and report
0

// repeat for Nc1ccc(C(=O)NN2C(=O)C(Cl)C2c2cc(Br)ccc2O)cc1 (stereo not given) and report
0
